test: qHTS of pediatric cancer cell lines to identify multiple opportunities for drug repurposing: Primary screen for DAOY cells (AID 1347090); details: DAOY medulloblastoma viability, CellTiter-Glo luminescence, 48 h; series mostly up to 46 µM; note: nearly all actives have a fitted effect of over 55% in size
Inconclusive results are not listed. Active and inactive are the calls of the source. Calls come from the whole dose curve; as a rule, active = well fitted cell-killing curve with a large enough effect; inconclusive = small, poorly fitted or top-dose-only effect; inactive = flat fitted curve, though single readings scatter.
Choose one outcome from this list and give only that: TRUE = active, FALSE = inactive

// below: answered compounds
{"compound": "CC(C)(C(=O)NCC(F)(F)C(F)(F)F)C(=O)N[C@@H]1C(=O)Nc2ccccc2-c2ccccc21", "category": "TRUE"}
{"compound": "NC(=O)c1cccc2[nH]c(-c3ccc([C@H]4CCCN4)cc3F)nc12", "category": "FALSE"}

Assay result, entry CN(C)CCC=C1c2ccccc2COc2ccc(CC(=O)O)cc21 — outcome?
FALSE

Could you kindly confirm the outcome this assay logged for CC(C)OC(=O)C(C)(C)Oc1ccc(C(=O)c2ccc(Cl)cc2)cc1 ?
FALSE

Recorded call for CCN(CC)CCOc1ccc(C(=C(Cl)c2ccccc2)c2ccccc2)cc1 ?
FALSE

Hi team, can someone confirm the assay call for COc1ccc(C2CC(c3ccccc3)=NN2c2ccc(S(N)(=O)=O)cc2)cc1 (configuration not stated) ?
FALSE

How was CC(C)(C)c1ccc(C(O)CCCN2CCC(C(O)(c3ccccc3)c3ccccc3)CC2)cc1 (configuration not stated) classified in this test?
FALSE

Tell me the recorded outcome of this test for O=C(O)c1cc(-c2ccccc2)nc2ccccc12 .
FALSE

Hello, I am checking results. What call was entered for Cc1nc(N)sc1-c1ccnc(Nc2ccc(N3CCOCC3)cc2)n1 ?
TRUE

Could you check what this test reported for CCc1ccc(C=C2SC(=S)NC2=O)cc1 ?
FALSE

Answer briefly: the call reported for NC(=O)c1cnc(-c2ccc(C3(N)CCC3)cc2)c(-c2ccccc2)c1 in this assay.
FALSE

Call for entry CNC(=O)c1ccc2cc(C3(O)CCn4cncc43)ccc2c1 (configuration not stated) :
FALSE

* * *

experiment: Quantitative High-Throughput drug screen in 47 multiple myeloma cell lines against the NCATS MIPE library collection: JIM3_ECACC cell viability assay (AID 1918963; note: nearly all actives have a fitted effect of over 35% in size); settings: JIM3 myeloma viability, CellTiter-Glo ATP, 48 h; series mostly up to 45.8 µM
Results filed as inconclusive are left out. Activity calls are given as the source filed them. Calls come from the whole dose curve; as a rule, active = well fitted cell-killing curve with a large enough effect; inconclusive = small, poorly fitted or top-dose-only effect; inactive = no such curve, though single readings can be large or run the other way.
Your answer must be one of the following: true (active), false (inactive)

Example entries begin here.
{"compound": "C[C@]12CC[C@@H]3c4ccc(O)cc4CC[C@H]3[C@H]1C[C@@H](O)[C@H]2O", "category": "false"}
{"compound": "CCCCCN(C)CCC(O)(P(=O)(O)O)P(=O)(O)O", "category": "false"}
{"compound": "COc1ccc2cccc(CCNC(C)=O)c2c1", "category": "false"}
{"compound": "O=C(O)C=Cc1ccc(O)c(O)c1", "category": "false"}

Hello, I am checking results. What call was entered for CCOc1ccc(Nc2nc(-c3c(C)nc4ccccn34)cs2)cc1 ?
false

What is the recorded call for this compound in the test? Cc1ccc(/C=N/NC(=O)c2ccccc2Oc2ccccc2)o1
true

What is the recorded call for this compound in the test? O=C(OCC#CCSc1nnc(-c2cccc3ccccc23)o1)c1cc2ccccc2s1
false

Could you check what this test reported for Nc1ncnc2c1ncn2[C@@H]1O[C@@H](CO)[C@H](O)[C@H]1O ?
false

// outcome(item) with item = CON=C(C(=O)N[C@@H]1C(=O)N2C(C(=O)OCOC(=O)C(C)(C)C)=C(C=Cc3scnc3C)CS[C@H]12)c1csc(N)n1
false

Tell me the assay call for CC[C@H]1OC(=O)[C@H](C)C(=O)[C@H](C)[C@@H](O[C@H]2O[C@H](C)C[C@H](N(C)C)[C@@H]2O)[C@](C)(OC)C[C@@H](C)C(=O)[C@H](C)[C@H]2N(CCCCn3cnc(-c4cccnc4)c3)C(=O)O[C@]12C please.
false

* * *

test: Quantitative High-Throughput drug screen in 47 multiple myeloma cell lines against the NCATS MIPE library collection: OPM2_DSMZ cell viability assay (AID 1919872); conditions: OPM2 myeloma viability, CellTiter-Glo ATP luminescence, 48 h; series mostly up to 45.8 µM; note: nearly all actives have a fitted effect of over 30% in size
Records with an inconclusive call do not appear. Active and inactive are the calls of the source. The call rests on the fitted dose curve; in most records, active means well fitted cell-killing curve with a large enough effect; inconclusive means small, poorly fitted or top-dose-only effect, or effect the other way; inactive means no such curve, though single readings can be large or run the other way.
Pick one and only one: active, inactive

Consider the following illustrative entries.
{"compound": "O=c1cc(CN2CCOCC2)occ1OCCCCCSc1ccnc2cc(C(F)(F)F)ccc12", "category": "active"}
{"compound": "C[C@]12CCC3c4ccc(O)cc4CCC3C1CCC2=O (some centres undefined)", "category": "inactive"}
{"compound": "CC(=NNC(=S)N1CCC1)c1ccccn1", "category": "active"}
{"compound": "COc1ccc(C2Sc3ccccc3N(CCN(C)C)C(=O)C2OC(C)=O)cc1 (centres undefined)", "category": "inactive"}
{"compound": "CO[C@H]1C(=O)[C@]2(C)[C@@H](OC)C[C@H]3OC[C@@]3(OC(C)=O)[C@H]2[C@H](OC(=O)c2ccccc2)[C@]2(O)C[C@H](OC(=O)[C@H](O)[C@@H](NC(=O)OC(C)(C)C)c3ccccc3)C(C)=C1C2(C)C", "category": "inactive"}

Each compound tested received a call. Report the one for CO[C@H]1C[C@@H]2CC[C@@H](C)[C@@](O)(O2)C(=O)C(=O)N2CCCC[C@@H]2C(=O)O[C@H]([C@@H](C)C[C@@H]2CC[C@H](O)[C@H](OC)C2)CC(=O)[C@H](C)C=C(C)[C@@H](O)[C@@H](OC)C(=O)[C@H](C)C[C@H](C)C=CC=CC=C1C .
inactive

Which outcome was entered for the compound COc1cc2c(cc1OC)CN(CCc1ccc(NC(=O)c3cc(OC)c(OC)cc3NC(=O)c3cnc4ccccc4c3)cc1)CC2 in this test?
inactive

Query: recorded result category for Cc1cccc(Nc2nc(-c3ccncc3)cs2)c1 in this test
active

Fill in: this test's call for COc1cc(O)c2c(c1)C(=O)c1cc(C)cc(O)c1C2=O is ___
inactive

* * *

molecular target: Cytochrome P450 2C9 (Homo sapiens) (UniProt P11712); assay: qHTS Assay for Inhibitors and Substrates of Cytochrome P450 2C9 (AID 883); settings: recombinant CYP2C9, luciferin-H luminescence, 60 min; series mostly up to 57.1 µM; note: nearly all actives have a fitted effect of over 60% in size
Sequence (P11712 whole entry, looked up): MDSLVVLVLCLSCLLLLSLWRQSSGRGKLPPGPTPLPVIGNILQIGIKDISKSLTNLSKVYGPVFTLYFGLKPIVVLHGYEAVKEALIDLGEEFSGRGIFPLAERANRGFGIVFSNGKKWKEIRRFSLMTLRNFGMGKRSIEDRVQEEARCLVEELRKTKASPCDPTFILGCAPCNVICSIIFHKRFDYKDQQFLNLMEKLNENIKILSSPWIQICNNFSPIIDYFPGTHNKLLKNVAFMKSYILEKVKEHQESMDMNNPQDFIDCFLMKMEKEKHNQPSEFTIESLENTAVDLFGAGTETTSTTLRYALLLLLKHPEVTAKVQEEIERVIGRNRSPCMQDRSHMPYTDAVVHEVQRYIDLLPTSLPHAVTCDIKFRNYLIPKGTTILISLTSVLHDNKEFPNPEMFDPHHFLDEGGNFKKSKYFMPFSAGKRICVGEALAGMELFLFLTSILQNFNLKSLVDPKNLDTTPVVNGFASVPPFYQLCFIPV
Records with an inconclusive call do not appear. Active and inactive are the calls of the source. The call rests on the fitted dose curve; in most records, active means well fitted inhibition curve with a large enough effect; inconclusive means small, poorly fitted or top-dose-only effect; inactive means no such curve, though single readings can be large or run the other way.
One label from this list, please: class 1 = active, class 0 = inactive

{"mol": "O=c1c(O)c(-c2ccc(O)cc2)oc2cc(O)cc(O)c12", "category": "class 1"}

What was the test verdict on COc1ccc(-c2coc3cc(O)ccc3c2=O)cc1 ?
class 0

Test call, this compound: COc1ccc(-c2coc3cc(O)cc(O)c3c2=O)cc1
class 0

Please let me know the test result on file for CC(=O)c1ccc(S(=O)(=O)NC(=O)NC2CCCCC2)cc1 .
class 0

I'd appreciate the recorded outcome for c1cc(-c2sc(-c3ccncc3)c(-c3ccncc3)c2-c2ccncc2)ccn1 from this test.
class 1

Recorded test outcome, item O=c1cc(-c2ccccc2)oc2cc(O)c(O)c(O)c12
class 1

* * *

test: Quantitative High-Throughput drug screen in 47 multiple myeloma cell lines against the NCATS MIPE library collection: FR4_PLB cell viability assay (AID 1918924; note: nearly all actives have a fitted effect of over 35% in size); conditions: FR4_PLB myeloma cells viability, CellTiter-Glo ATP, 48 h; series mostly up to 45.8 µM
Inconclusive results are not listed. Calls of active or inactive are those of the source. The call rests on the fitted dose curve; in most records, active means well fitted cell-killing curve with a large enough effect; inconclusive means small, poorly fitted or top-dose-only effect, or effect the other way; inactive means no such curve, though single readings can be large or run the other way.
The categories you may choose from are T for active, F for inactive

Recorded results for 4 molecules are shown here.
{"molecule": "COc1ccc2c3c1OC1C[C@@H](O)C=C[C@@]31CCN(C)C2 (stereo partly drawn)", "category": "F"}
{"molecule": "CCCCCNC(=O)N1CCC(CN(Cc2ccc(Cl)cc2)Cc2ccc([N+](=O)[O-])s2)C1 (stereo not drawn)", "category": "T"}
{"molecule": "Cc1c(NC(=O)c2ccc(C(C)(C)C)cc2)cccc1-c1cn(C)c(=O)c(Nc2ccc(C(=O)N3CCOCC3)cc2)n1", "category": "T"}
{"molecule": "CC(C)(C(=O)NCC(F)(F)C(F)(F)F)C(=O)N[C@@H]1C(=O)Nc2ccccc2-c2ccccc21", "category": "F"}

Test call, this molecule: O=C(CCN1CCN(C(=O)OCc2cc(Cl)cc(Cl)c2)CC1)c1ccc2[nH]c(=O)oc2c1
F

Entry CC(=O)Nc1ccc([C@H](C)C(=O)Nc2ncc(C(C)C)s2)cc1 : call = ?
T

Per the records of this test, what outcome belongs to CN(C)C1CCN(C(=O)c2ccc(NC(=O)Nc3nc(N4CCOCC4)nc(N4CCOCC4)n3)cc2)CC1 ?
T

* * *

experiment: Quantitative High-Throughput drug screen in 47 multiple myeloma cell lines against the NCATS MIPE library collection: KMS21BM_JCRB cell viability assay (AID 1918974); details: ATP luminescence, 48 h
Records with an inconclusive call do not appear. Calls of active or inactive are those of the source. Calls follow the shape of the dose curve; as a rule, active = well fitted cell-killing curve with a large enough effect; inconclusive = small, poorly fitted or top-dose-only effect, or effect the other way; inactive = no such curve, though single readings can be large or run the other way.
Answer with one of the outcomes given here: active, inactive

Previously resolved entries follow.
{"compound": "NC(=O)c1ccc2nc(-c3ccc(Oc4ccc(Cl)cc4)cc3)[nH]c2c1", "category": "active"}
{"compound": "CCN(CC)CCOc1ccc(C(=C(Cl)c2ccccc2)c2ccccc2)cc1", "category": "active"}
{"compound": "Clc1ccc(CCC(Cn2ccnc2)Sc2c(Cl)cccc2Cl)cc1 (stereo not given)", "category": "active"}
{"compound": "O=C1NC(=O)C(=Cc2ccc3c(c2)OC(F)(F)O3)S1", "category": "active"}
{"compound": "COc1ccc(-c2oc3c(CC=C(C)C)c(OC4O[C@H](CO)[C@@H](O)[C@H](O)[C@@H]4O)cc(O)c3c(=O)c2OC2O[C@@H](C)[C@H](O)[C@@H](O)[C@@H]2O)cc1 (stereo not given in full)", "category": "active"}
{"compound": "CO[C@H]1C[C@@H]2CC[C@@H](C)[C@@](O)(O2)C(=O)C(=O)N2CCCC[C@@H]2C(=O)O[C@H]([C@H](C)C[C@@H]2CC[C@H](OCCO)[C@H](OC)C2)CC(=O)[C@H](C)C=C(C)[C@@H](O)[C@@H](OC)C(=O)[C@H](C)C[C@H](C)C=CC=CC=C1C", "category": "active"}
{"compound": "Clc1ccc(C(c2ccc(Cl)cc2)n2cc[n+](CC(OCc3ccc(Cl)cc3Cl)c3ccc(Cl)cc3Cl)c2)cc1 (stereo not given)", "category": "active"}
{"compound": "COc1cc(N2CCC(N3CCN(C)CC3)CC2)ccc1Nc1ncnc(Nc2ccccc2S(=O)(=O)C(C)C)n1", "category": "inactive"}

GET /call?item= O=C(Nc1c(Cl)cncc1Cl)c1ccc(OC(F)F)c(OCC2CC2)c1 returns the recorded outcome of this test.
inactive

What classification did O=C1NC(=O)C(=Cc2ccc(-c3ccc(F)cc3)o2)S1 end up with in this test?
active
